# System: Neuro2A cells
# Test Summary: Toxicity to Neuro2A cells (MTT)
# Type: cell-based
# Experimental Parameters: 500 μM, 12 hours, control = 1
The threshold is 0.5. Values of 500 μM relative viability beneath it are tagged Condition met; values meeting or exceeding it are tagged Condition not met.

{"Molecule": "NC(=O)c1ccc[n+]([C@@H]2O[C@H](COP(=O)([O-])O)C(O)C2F)c1 (some centres unmarked) [ara-F-NMN]", "Assay Target": "Neuro2A cells", "Category Label": "Condition met"}
{"Molecule": "NC(=O)c1ccc[n+]([C@@H]2O[C@H](CO)[C@@H](O)C2(F)F)c1", "Assay Target": "Neuro2A cells", "Category Label": "Condition met"}
{"Molecule": "NC(=O)c1ccc[n+]([C@@H]2O[C@H](CO)C(O)C2F)c1 (some centres unmarked)", "Assay Target": "Neuro2A cells", "Category Label": "Condition not met"}

Problem: For the molecule NC(=O)c1ccc[n+]([C@@H]2O[C@H](COP(=O)([O-])O)C(O)C2F)c1 (some centres unmarked) [ribo-F-NMN] , is 500 μM relative viability under 0.5?
Condition not met

Where do the numbers come from? From patent US9790252B2.
